Overview of recorded optical density for various binders
target: T1, Goat anti-Human Kappa; experiment: ELISA, positive control; further: test concentration or dose not given here
T1 construct: Positive control of the ELISA; also called biotinylated goat anti-human kappa light chain
Output spec: scalar in OD, unitless text.

Known optical density results, listed for orientation:
{"binder": "369_B01 (antibody, V domains shown) VH: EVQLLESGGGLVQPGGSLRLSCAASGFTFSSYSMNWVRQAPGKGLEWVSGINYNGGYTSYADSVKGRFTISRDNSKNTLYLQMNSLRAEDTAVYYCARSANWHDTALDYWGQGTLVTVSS VL: DIQMTQSPSSLSASVGDRVTITCRASQSILSYLNWYQQKPGKAPKLLIYAVTSRASGVPSRFSGSGSGTDFTLTISSLQPEDFATYYCQQSYENPLTFGGGTKVEIK", "readout": "optical density", "output_unit": "OD", "recorded_number": 3.59}
{"binder": "370_G09 (antibody, V domains shown) VH: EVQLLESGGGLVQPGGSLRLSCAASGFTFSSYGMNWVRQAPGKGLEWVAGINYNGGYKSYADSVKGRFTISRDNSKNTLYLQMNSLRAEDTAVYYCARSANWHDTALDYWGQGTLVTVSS VL: DIQMTQSPSSLSASVGDRVTITCRASQSILSYVNWYQQKPGKAPKLVIYAATSRASGVPSRFSGSGSGTDFTLTISSLQPEDFATYYCQQSYESPLTFGGGTKVEIK", "readout": "optical density", "output_unit": "OD", "recorded_number": 3.64}

Query string: For the binder 368_G01 (antibody, V domains shown) VH: EVQLLESGGGLVQPGGSLRLSCAASGFTFSDYGMHWVRQAPGKGLEWVASINYNSGYTSYADSVKGRFTISRDNSKNTLYLQMNSLRAEDTAVYYCARSANWHDTALDYWGQGTLVTVSS VL: DIQMTQSPSSLSASVGDRVTITCRASQSILTYLNWYQQKPGKAPKLVIYAATSRASGVPSRFSGSGSGTDFTLTISSLQPEDFATYYCQQSYNLPLTFGGGTKVEIK , give its reported optical density.
Result string: 3.62

Query string: Report optical density for 369_D12 (antibody, V domains shown) VH: EVQLLESGGGLVQPGGSLRLSCAASGFTFDSYSMNWVRQAPGKGLEWVAGINYNSGYTSYADSVKGRFTISRDNSKNTLYLQMNSLRAEDTAVYYCARSANWHDTALDYWGQGTLVTVSS VL: DIQMTQSPSSLSASVGDRVTITCRASQSILSYLNWYQQKPGKAPKLLIYAATSLASGVPSRFSGSGSGTDFTLTISSLQPEDFATYYCQQSYDTPLTFGGGTKVEIK
Result string: 3.53

Query string: Output measured optical density for this item: 370_C08 (antibody, V domains shown) VH: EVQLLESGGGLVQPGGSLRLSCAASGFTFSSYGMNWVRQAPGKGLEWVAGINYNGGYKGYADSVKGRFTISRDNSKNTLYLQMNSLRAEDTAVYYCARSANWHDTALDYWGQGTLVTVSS VL: DIQMTQSPSSLSASVGDRVTITCRASQSISNYLNWYQQKPGKAPKLLIYAVTSRASGVPSRFSGSGSGTDFTLTISSLQPEDFATYYCQQSYDSPLTFGGGTKVEIK
Result string: 3.11

Query string: Let me know recorded optical density for 372_F09 (antibody, V domains shown) VH: EVQLLESGGGLVQPGGSLRLSCAASGFTFDSYSMNWVRQAPGKGLEWVANINYNSGYKGYADSVKGRFTISRDNSKNTLYLQMNSLRAEDTAVYYCARSANWHDTALDYWGQGTLVTVSS VL: DIQMTQSPSSLSASVGDRVTITCRASQSILTYLNWYQQKPGKAPKLVIYAATSLASGVPSRFSGSGSGTDFTLTISSLQPEDFATYYCQQSYSSPLTFGGGTKVEIK , thanks.
Result string: 3.47

Query string: Identify optical density associated with the binder 369_D02 (antibody, V domains shown) VH: EVQLLESGGGLVQPGGSLRLSCAASGFTFSDYSMNWVRQAPGKGLEWVSNINYNSGYTGYADSVKGRFTISRDNSKNTLYLQMNSLRAEDTAVYYCARSANWHDTALDYWGQGTLVTVSS VL: DIQMTQSPSSLSASVGDRVTITCRASQSILSYLNWYQQKPGKAPKLVIYAVTSRASGVPSRFSGSGSGTDFTLTISSLQPEDFATYYCQQSYDTPLTFGGGTKVEIK
Result string: 3.53

Query string: Please look at this binder and report its optical density: 368_E01 (antibody, V domains shown) VH: EVQLLESGGGLVQPGGSLRLSCAASGFTFSSYSMNWVRQAPGKGLEWVASINYNSGYTGYADSVKGRFTISRDNSKNTLYLQMNSLRAEDTAVYYCARSANWHDTHLDYWGQGTLVTVSS VL: DIQMTQSPSSLSASVGDRVTITCRASQSILSYLNWYQQKPGKAPKLLIYAVTSRHSGVPSRFSGSGSGTDFTLTISSLQPEDFATYYCQQSYSLPLTFGGGTKVEIK
Result string: 3.74

Query string: Answer with the recorded optical density of 370_A01 (antibody, V domains shown) VH: EVQLLESGGGLVQPGGSLRLSCAASGFTFSSYSMNWVRQAPGKGLEWVSGINYNSGYKSYADSVKGRFTISRDNSKNTLYLQMNSLRAEDTAVYYCARSANWHDTALDYWGQGTLVTVSS VL: DIQMTQSPSSLSASVGDRVTITCRASQSISTYLNWYQQKPGKAPKLVIYAATSRASGVPSRFSGSGSGTDFTLTISSLQPEDFATYYCQQSYNLPLTFGGGTKVEIK only.
Result string: 3.62

Recorded values, source patent US20210380703A1.
